Data provenance: PubChem BioAssay AID2060899

System: 565726-208-R1-J5-PDC complex spheroids, growth inhibition
protocol details: Anticancer human tumor 565726-208-R1-J5-PDC patient-derived pancreatic adenocarcinoma cell line growth inhibition [RAS]
test parameters: second compound 0.000949 µM; first compound 1 µM; stronger effect = lower value
Each entry below carries its recorded viability, T/C.
Kindly answer with a numeric value in %, unit omitted.

compound	measured quantity	measure unit	readout number
C[C@@H](NC(=O)c1ncnc(N)c1Cl)c1ncc(C(=O)Nc2cc(C(F)(F)F)c(Cl)cn2)s1 + CCn1c(-c2cccnc2C(C)OC)c2c3cc(ccc31)N1CCOC(CC(NC(=O)C(C(C)C)N(C)C(=O)C3(F)CCN(C(=O)C#CC(C)(C)N(C)C)CC3)C(=O)N3CCCC(N3)C(=O)OCC(C)(C)C2)C1	viability, T/C	%	103
CC(=O)OC12COC1CC(O)C1(C)C(=O)C(O)C3=C(C)C(OC(=O)C(O)C(NC(=O)OC(C)(C)C)c4ccccc4)CC(O)(C(OC(=O)c4ccccc4)C21)C3(C)C (centres undefined) + CCn1c(-c2cc(N3CCN(C)CC3)cnc2C(C)OC)c2c3cc(ccc31)-c1csc(n1)CC(NC(=O)C1CC1C)C(=O)N1CCCC(N1)C(=O)OCC(C)(C)C2	viability, T/C	%	17.7

Challenge: Form field: reported viability, T/C of C=CC(=O)N1CCN(c2nc(OCC3CCCN3C)nc3c(F)c(-c4nc(N)cc(C)c4C(F)(F)F)c(Cl)cc23)C(C)C1 (centres undefined) + CCn1c(-c2cc(N3CCN(C)CC3)cnc2C(C)OC)c2c3cc(ccc31)-c1csc(n1)CC(NC(=O)C1CC1C)C(=O)N1CCCC(N1)C(=O)OCC(C)(C)C2
Response given: 57.9

Challenge: Now try CC(C)NCC(C(=O)N1CCN(c2ncnc3c2C(C)CC3O)CC1)c1ccc(Cl)cc1 (centres undefined) + CCn1c(-c2cc(N3CCN(C)CC3)cnc2C(C)OC)c2c3cc(ccc31)-c1csc(n1)CC(NC(=O)C1CC1C)C(=O)N1CCCC(N1)C(=O)OCC(C)(C)C2 .
Response given: 51.7

====

Test system: 565726-208-R1-J5-PDC complex spheroids, growth inhibition
protocol details: Anticancer human tumor 565726-208-R1-J5-PDC cell line growth inhibition [RAS];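 note: spheroids exposed to compounds for seven days before readout; 100% = DMSO vehicle control viability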
test parameters: second compound 0.003 µM; first compound 0.0316 µM; stronger effect = lower value
measured quantity: viability, T/C

Reference set, count: 3
molecule	viability, T/C
CC(C)n1nc(-c2ccc3oc(N)nc3c2)c2c(N)ncnc21 + CCn1c(-c2cc(N3CCN(C)CC3)cnc2C(C)OC)c2c3cc(ccc31)-c1csc(n1)CC(NC(=O)C1CC1C)C(=O)N1CCCC(N1)C(=O)OCC(C)(C)C2	20.7%
CC(C)NCC(C(=O)N1CCN(c2ncnc3c2C(C)CC3O)CC1)c1ccc(Cl)cc1 (centres undefined) + CCn1c(-c2cc(N3CCN(C)CC3)cnc2C(C)OC)c2c3cc(ccc31)-c1csc(n1)CC(NC(=O)C1CC1C)C(=O)N1CCCC(N1)C(=O)OCC(C)(C)C2	59.2%
CC1(O)CCCC1n1c(=O)c(C(F)F)cc2cnc(NC3CCN(S(C)(=O)=O)CC3)nc21 (centres undefined) + CCn1c(-c2cc(N3CCN(C)CC3)cnc2C(C)OC)c2c3cc(ccc31)-c1csc(n1)CC(NC(=O)C1CC1C)C(=O)N1CCCC(N1)C(=O)OCC(C)(C)C2	48.5%

Turning now to a further molecule:
Challenge: Form field: reported viability, T/C of Nc1ccn(C2OC(CO)C(O)C2(F)F)c(=O)n1 (centres undefined) + CCn1c(-c2cc(N3CCN(C)CC3)cnc2C(C)OC)c2c3cc(ccc31)-c1csc(n1)CC(NC(=O)C1CC1C)C(=O)N1CCCC(N1)C(=O)OCC(C)(C)C2
Response given: 40.4%
